Quick reference: IC50 of the listed items.
# Study Target: Pseudomonas aeruginosa LpxC enzyme (Pseudomonas aeruginosa)
# Construct: made in house; host or cells: E. coli
# Sequence (P47205 1-303): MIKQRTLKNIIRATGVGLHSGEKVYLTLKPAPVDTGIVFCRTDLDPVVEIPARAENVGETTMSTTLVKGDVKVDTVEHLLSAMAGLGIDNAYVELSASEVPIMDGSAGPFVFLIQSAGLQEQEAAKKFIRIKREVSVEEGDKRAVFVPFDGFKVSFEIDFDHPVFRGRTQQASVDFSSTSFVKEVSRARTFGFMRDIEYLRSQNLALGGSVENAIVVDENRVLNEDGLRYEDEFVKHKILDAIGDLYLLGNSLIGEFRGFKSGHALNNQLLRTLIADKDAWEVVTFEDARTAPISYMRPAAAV
# Method Summary: IC50 assay, LpxC enzyme from P. aeruginosa
# Assay type: biochemical
# Assay Context: 0.5 nM enzyme, 25° C., pH 8.0, 20 min; ** = average of 2-8 assays
# Description: IC50 assay, LpxC enzyme from P. aeruginosa: IC50 determination in the LpxC enzyme assay was carried out in a similar manner to that described by S. A. Hyland et al., J. Bacteriology 1997, 179, 2029-2037. [See also T. Kline et al., J. Medicinal Chemistry 2002, 45, 3112-3129.] […] The contents of the well were transferred to a filter plate and filtered, and an aliquot of the filtrate was quantitated by liquid scintillation spectrometry. […]
Express your answer in µM, writing the number without its unit.

>>> df
                            chemical_string  quantity_measured   number
0  C[C@@](OCc1ccc(-c2ccccc2)cc1)(C(=O)NO)[C@@H](O)c1cn2ccccc2n1               IC50  0.00138
1  C[C@@](OCc1ccc(-c2ccccc2)cc1)(C(=O)NO)[C@@H](O)CC(F)(F)F               IC50  0.00953
2  C[C@H](O)[C@](C)(OCc1ccc(-c2ccccc2)cc1)C(=O)NO               IC50  0.00299

stdin: Quick check: IC50 of `C[C@@](OCc1ccc(-c2ccccc2)cc1)(C(=O)NO)[C@@H](O)c1cncs1` ?
stdout: 0.00823

* * *

Quick reference: IC50 of the listed items.
# Study Target: Pseudomonas aeruginosa LpxC enzyme (Pseudomonas aeruginosa, UniProt P47205)
# Construct: made in house; host or cells: E. coli
# Method Summary: IC50 assay, LpxC enzyme from P. aeruginosa
# Format: biochemical
# Assay Context: 0.5 nM enzyme, 25° C., pH 8.0, 20 min; ** = average of 2-8 assays
Express your answer in µM, writing the number without its unit.

>>> df
                                   compound  quantity_measured  readout_unit  number
0  Cc1ccc(CNC(=O)C(C)(OCc2ccc(-c3ccccc3)cc2)C(=O)NO)cc1 (centres unmarked) [Example 72]               IC50            µM  0.0307

stdin: Please state recorded IC50 (tested on Pseudomonas aeruginosa LpxC enzyme (Pseudomonas aeruginosa, UniProt P47205)) of C[C@@](OCc1ccc(-c2ccc(C(F)(F)F)cc2)cc1)(C(=O)NO)[C@@H](O)c1cc(CO)on1 [Example 42]
stdout: 0.000372

stdin: Please state recorded IC50 (tested on Pseudomonas aeruginosa LpxC enzyme (Pseudomonas aeruginosa, UniProt P47205)) of CC(OCc1ccc(-c2ccccc2)cc1)(C(=O)NO)C(=O)NCc1cn2ccccc2n1 (centres unmarked) [Example 83]
stdout: 0.00218

stdin: Please state recorded IC50 (tested on Pseudomonas aeruginosa LpxC enzyme (Pseudomonas aeruginosa, UniProt P47205)) of CNC(=O)C(C)(OCc1ccc(-c2ccc(-c3cc(CO)no3)cc2)cc1)C(=O)NO (centres unmarked) [Example 49]
stdout: 0.00175

stdin: Please state recorded IC50 (tested on Pseudomonas aeruginosa LpxC enzyme (Pseudomonas aeruginosa, UniProt P47205)) of COCCNC(=O)C(C)(OCc1ccc(-c2ccccc2)cc1)C(=O)NO (centres unmarked) [Example 74]
stdout: 0.0139
